B1: glmS ribozyme (parent)
chain: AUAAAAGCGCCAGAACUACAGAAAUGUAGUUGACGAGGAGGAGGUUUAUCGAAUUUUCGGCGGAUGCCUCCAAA

- Variants of: B1
- ASSAY PROTOCOL: kcat; higher = faster cleavage; RNA array
- ASSAY SETUP: with glucosamine-6-phosphate
This sample holds only a part of the variants without activity.
Use 0.0001 s⁻¹ as the dividing line for kcat, with the line itself on the TRUE side and lower values as FALSE.

Prompt line: I'd appreciate it if you could say whether G13U A64G has kcat at least equal to 0.0001 s⁻¹.
Response line: TRUE

Prompt line: I'd appreciate it if you could say whether A33U C50U G59U has kcat at least equal to 0.0001 s⁻¹.
Response line: FALSE

Prompt line: I'd appreciate it if you could say whether G32C U47G has kcat at least equal to 0.0001 s⁻¹.
Response line: FALSE

Prompt line: I'd appreciate it if you could say whether C61U C70G has kcat at least equal to 0.0001 s⁻¹.
Response line: FALSE

Prompt line: I'd appreciate it if you could say whether G37C C50A C58A U69A has kcat at least equal to 0.0001 s⁻¹.
Response line: FALSE

Prompt line: I'd appreciate it if you could say whether A6U C68A has kcat at least equal to 0.0001 s⁻¹.
Response line: FALSE

Prompt line: I'd appreciate it if you could say whether C50G C58A G62C G63C C70A has kcat at least equal to 0.0001 s⁻¹.
Response line: TRUE

Prompt line: I'd appreciate it if you could say whether G13C U56G has kcat at least equal to 0.0001 s⁻¹.
Response line: TRUE

Prompt line: I'd appreciate it if you could say whether A12G U55G has kcat at least equal to 0.0001 s⁻¹.
Response line: TRUE

Prompt line: I'd appreciate it if you could say whether A15U C16U has kcat at least equal to 0.0001 s⁻¹.
Response line: TRUE

Prompt line: I'd appreciate it if you could say whether G35C G40U has kcat at least equal to 0.0001 s⁻¹.
Response line: FALSE

Prompt line: I'd appreciate it if you could say whether U65C G66A has kcat at least equal to 0.0001 s⁻¹.
Response line: TRUE

Prompt line: I'd appreciate it if you could say whether A14C U31G has kcat at least equal to 0.0001 s⁻¹.
Response line: TRUE

Prompt line: I'd appreciate it if you could say whether U49C C70G has kcat at least equal to 0.0001 s⁻¹.
Response line: FALSE

Prompt line: I'd appreciate it if you could say whether G7U A36C A48U has kcat at least equal to 0.0001 s⁻¹.
Response line: FALSE

Prompt line: I'd appreciate it if you could say whether A33U C71U has kcat at least equal to 0.0001 s⁻¹.
Response line: TRUE

Prompt line: I'd appreciate it if you could say whether A33U U65A has kcat at least equal to 0.0001 s⁻¹.
Response line: FALSE

Prompt line: I'd appreciate it if you could say whether G29C G32U has kcat at least equal to 0.0001 s⁻¹.
Response line: TRUE

Prompt line: I'd appreciate it if you could say whether C10U U47A has kcat at least equal to 0.0001 s⁻¹.
Response line: FALSE

Prompt line: I'd appreciate it if you could say whether U47A C67A has kcat at least equal to 0.0001 s⁻¹.
Response line: TRUE

Prompt line: I'd appreciate it if you could say whether A15U U55A has kcat at least equal to 0.0001 s⁻¹.
Response line: TRUE

Data provenance: the supplement of paper PMC7125110
